Taken from PubChem BioAssay (NCI).

Test system: SK-MEL-2 melanoma
Assay: NCI-60 one-dose screen, 48 h
Conditions: 10 µM
This is part of a sample that, as a whole, favours compounds with a hit. Of some 83,000 tested, about 20% had one in any assay. Calls of active or inactive are those of the source. How the source made its calls: active means growth percent below 10; inactive means the rest.
// classify into active, inactive

MOLECULE: C#CCOc1c(OC)cc(C(=O)/C(C)=C/c2cccc(N=[N+]=[N-])c2)cc1OC
CLASS ASSIGNMENT: inactive

Q: For COc1ccc(C(=O)c2cc3c(OC)c(OC)c(OC)cc3[nH]2)cc1 , which call appears in the assay record?
A: inactive

Q: // param item: O=[N+]([O-])c1ccc2ncccc2c1Cl ; yields the recorded call
A: inactive

* * *

Tested on: ACHN renal
Assay: NCI-60 one-dose screen, 48 h
Details: 10 µM
This is part of a sample that, as a whole, favours compounds with a hit. Of some 83,000 tested, about 20% had one in any assay. Active and inactive are the calls of the source. How the source made its calls: active means growth percent below 10; inactive means the rest.
Write down the outcome that applies. Available outcomes: yes = active, no = inactive

Here's what some known entries look like.
COMPOUND: CN1C(=O)C2(Nc3cc(Cl)ccc3S2)c2cc(Cl)ccc21 (centres undefined)
TARGET DESC: ACHN renal
CLASS ASSIGNMENT: no
--
COMPOUND: CCCCCCCCCCOC(c1ccccc1)c1ccccc1
TARGET DESC: ACHN renal
CLASS ASSIGNMENT: no
--
COMPOUND: Cc1cc(C)nc(NS(=O)(=O)c2ccc(Nc3nc4nc(NCc5ccccc5)nc(-c5ccc(O)cc5)c4c(=O)[nH]3)cc2)n1
TARGET DESC: ACHN renal
CLASS ASSIGNMENT: no
--
COMPOUND: CC(C)(C)c1ccc(S(=O)(=O)N[C@H]2CC[C@H]3[C@@H]4CCc5cc(O)c([N+](=O)[O-])cc5[C@H]4CC[C@]23C)cc1
TARGET DESC: ACHN renal
CLASS ASSIGNMENT: no
--
COMPOUND: OCC1OC2C(NC(=S)N2c2ccccc2)C(O)C1O (centres undefined)
TARGET DESC: ACHN renal
CLASS ASSIGNMENT: no
--
COMPOUND: Brc1ccc2c(c1)-c1ccccc1C1=NCCN12
TARGET DESC: ACHN renal
CLASS ASSIGNMENT: yes
--
COMPOUND: COc1ccc(-c2nn(-c3cccc(Cl)c3)cc2-c2cc(-c3ccccc3)nc(N)n2)cc1
TARGET DESC: ACHN renal
CLASS ASSIGNMENT: no
--
COMPOUND: COc1cc2c(cc1NC(=O)C(Cl)Cl)-c1ccc(NC(=O)C(Cl)Cl)cc1C2
TARGET DESC: ACHN renal
CLASS ASSIGNMENT: yes

Q: Which outcome was assigned to COc1cc(/C=C/c2cc(/C=C/c3ccc(O)c(OC)c3)n(C(=O)Nc3ccc(C)cc3)n2)ccc1O in this test?
A: no

* * *

Tested on: CCRF-CEM leukemia
Assay: NCI-60 one-dose screen, 48 h (100 = growth as untreated, 0 = no growth, -100 = all killed)
Settings: 10 µM
Method: Growth inhibition of the CCRF-CEM human tumor cell line is measured as a screen for anti-cancer activity. Cells are grown in 96 well plates and exposed to the test compound for 48 hours. Compounds are tested at a single concentration, which is 10^-5 M for most compounds. The reported endpoint is percent growth (GI% or GIPRCNT), where numbers from 0 - 100% represent growth inhibition, and numbers from -100% - 0 represent cell death. For example, a value of 40 represents 60% growth inhibition. […]
The panel holds about 83,000 compounds, 20% with a hit somewhere; the sample as a whole holds those more often.
Listed next: entries and their corresponding growth.
Write the answer as a number in %, unit excluded.

In the examples that follow, each entry is paired with its recorded growth.
COMPOUND: COc1ccc(C2CC(c3cccs3)=NN2c2ccc(S(N)(=O)=O)cc2)cc1 (stereo unspecified)
growth (%): 76.3
//
COMPOUND: NC(CSC(c1ccccc1)(c1ccccc1)c1cccc2ccccc12)C(=O)O (stereo unspecified)
growth (%): 86.2
//
COMPOUND: CC1OC2CC(=O)OC2C2=C1C(=O)c1c(O)c3c(c(O)c1C2=O)C1CC(O)C3(O)C(C)O1 (stereo unspecified)
growth (%): 12
//
COMPOUND: CC(=O)C1N=NCC1c1ccccc1 (stereo unspecified)
growth (%): 104
//
COMPOUND: COc1cc2c(Nc3ccc(S(N)(=O)=O)cc3)ncnc2c(OC)c1OC
growth (%): 92.5
//
COMPOUND: CCCCCCCCCCOC(c1ccccc1)c1ccccc1
growth (%): 93.7
//
COMPOUND: O=C(Nc1ccc(OCc2nnc(-c3ccc(Cl)cc3)o2)c(F)c1)Nc1ccc(Cl)c(C(F)(F)F)c1
growth (%): 4.05
//
COMPOUND: COc1ccc2c(c1)OC(N)=C(C#N)C2c1cc(OC)c(OC)c(OC)c1 (stereo unspecified)
growth (%): 7.72

Q: What does the data say about its growth? Entry: O=C(CSc1nnc(-c2cccnc2SCc2ccccc2)o1)Nc1nc(Cl)cc(Cl)n1
A: 101

Q: Fill in: growth of CSc1nc(S(C)(=O)=O)nc2[nH]c(=O)[nH]c12 is ___
A: 117

Q: Dear colleague, I am looking for the recorded growth of the following compound: O=C1CCn2c1c(O)c1ccccc1c2=O
A: 99.6

Q: Returns the measured growth for the input compound. Input: Oc1cccc(-c2nc3sccn3c2-c2ccncn2)c1
A: 94.1

Q: Look at this compound and give its reported growth. CC1/C=C/C=C/C=C/C=C/C=C/C=C/C=C/C(O[C@@H]2O[C@H](C)[C@H](O)[C@@H](O)[C@@H]2N)CC(O)C(C(=O)O)C(O)CC(=O)CC(O)CC(O)CC(O)CC(=O)CCCC(=O)CC(=O)OC1C(C)CC(C)C(O)CC(=O)c1ccc(N)cc1 (stereo partly specified)
A: -59.2

Q: For the compound N#Cc1cnn(C(=O)c2nn(-c3ccc(Cl)cc3)cc2O)c1N , what growth is on record?
A: -10.1

Q: What growth value was documented for this compound, CNC(=O)c1c(I)c(NC(C)=O)c(I)c(C(=O)O)c1I ?
A: 104

Q: Item under review: O=C(NCCCNS(=O)(=O)c1ccc(Cl)cc1)Nc1ccc(-n2cc(-c3ccncc3)c(-c3ccc(Cl)c(O)c3)n2)cc1 . Reported growth?
A: 23.5

Q: Requested read-out: growth. Entry: O=C(CN(C1CCCCC1)C1CCCCC1)Nc1ccc(S(=O)(=O)c2ccc(NC(=O)CN(C3CCCCC3)C3CCCCC3)cc2)cc1
A: -59.7

Q: I'd like to know its growth. The compound in question is COc1ccc(-c2onc(N)c2-c2cc(OC)c3c(c2)OCO3)cc1
A: 14.5

* * *

System: OVCAR-5 ovarian
Assay: NCI-60 one-dose screen, 48 h (100 = growth as untreated, 0 = no growth, -100 = all killed)
Conditions: 10 µM
This is part of a sample that, as a whole, favours compounds with a hit. Of some 83,000 tested, about 20% had one in any assay.
Rule: growth under 80% gives false, otherwise true.

COMPOUND: CCCC1(CN2c3ccccc3Sc3ccc(Cl)cc32)CCN(CC)C1 (centres undefined)
CLASS ASSIGNMENT: false
--
COMPOUND: Cc1ccc(C2=NN(c3ccc(S(C)(=O)=O)cc3)C(=O)CC2)cc1
CLASS ASSIGNMENT: false
--
COMPOUND: CCN(CC)CCOC(=O)c1cc(OCc2ccccc2)c(OCc2ccccc2)c(OCc2ccccc2)c1
CLASS ASSIGNMENT: true

Q: Could you please find out whether NC(CSC(c1ccccc1)(c1ccccc1)c1cccc2ccccc12)C(=O)O (centres undefined) has growth that meets 80% or exceeds it?
A: true

Q: Could you tell me if the measured growth of Cc1nn(-c2ccc(-c3ccc(OC(F)(F)F)cc3)cc2)c2nc(Cc3ccccc3)nc(N)c12 reaches 80% or more?
A: false

Q: Kindly determine if growth recorded for Nc1ccc(-c2cccs2)cc1NC(=O)c1ccc(CCCC(=O)Nc2ccc(C3CC3N)cc2)cc1 (centres undefined) is above or exactly 80%.
A: true

Q: Textbook exercise: given the entry CC(CN(C)C)Oc1ccc(OC(C)CN(C)C)c2c1C(=O)c1ccccc1C2=O (centres undefined) , state whether its growth is greater than or equal to 80%.
A: false

Q: Is it the case that Nc1ccn(Cc2nnc(CCC(=O)c3nc4ccccc4[nH]3)o2)c(=O)n1 has growth reaching or exceeding 80%?
A: true

* * *

System: SNB-75 CNS
Experiment: NCI-60 one-dose screen, 48 h
Settings: 10 µM
Compounds without any hit were thinned out: in the full panel of roughly 83,000, 20% have a hit. Active and inactive are the calls of the source. Rule for the calls: active = growth percent below 10; inactive = the rest.
Your response should consist of one outcome taken from 1 (yes) = active, 0 (no) = inactive

See these solved cases before continuing.
MOLECULE: CCOC(=O)c1cc(C(=O)c2ccc(OC)c(OC)c2)n2c1ccc1ccc3cccnc3c12
CLASS ASSIGNMENT: 0 (no)

MOLECULE: O=C(CSc1nnc(-c2cccnc2SCc2ccccc2)o1)Nc1nc(Cl)cc(Cl)n1
CLASS ASSIGNMENT: 0 (no)

MOLECULE: C(=N\Nc1ncnc2sc3c(c12)CCNC3)/c1cccc2ccccc12
CLASS ASSIGNMENT: 0 (no)

Q: What was the test verdict on COc1cc(/C=C2\CCCC3=C2NC(N)=NC3c2cc(OC)c(OC)c(OC)c2)cc(OC)c1OC (stereo unspecified) ?
A: 0 (no)

Q: Called result for COc1cc(C(=O)/C=C/c2c[nH]c3ccccc23)cc(OC)c1OC
A: 0 (no)

Q: Lab log entry: C/C(=C/CCC(C)[C@@H]1CC[C@]2(C)C3=C(CC[C@@]12C)[C@@]1(C)CCC(=O)C(C)(C)[C@@H]1CC3)C(=O)O (stereo partly specified) — outcome as called in the assay?
A: 1 (yes)
